# assay.remarks: Elimination half life in human at 400 mg/kg, po administered as single dose and measured upto 144 hrs
# Format: ADME, organism-based
# test.parameters: in vivo, read-out: beta t1/2 (converted)

| mol.smiles | half-life / h |
| --- | --- |
| Cc1ccc(NC(=O)C[C@H](CCC(=O)O)c2noc([C@H]3C[C@@H](CC(C)(C)C)C3)c2C2CC2)c(Cl)c1 | 7.42 |

====

# assay.remarks: Lipophilicity, logD of compound by RP-HPLC analysis
# Assay type: physicochemical

| molecule | logD |
| --- | --- |
| Cc1ccc(NC(=O)C[C@H](CC(C)(C)O)c2nnc([C@H]3C[C@@H](CC(C)C)C3)n2C2CC2)c(C)c1.Cl | 4.4 |
| Cc1ccc(NC(=O)C[C@H](CC(=O)O)c2noc([C@H]3C[C@@H](CC(C)C)C3)c2C2CC2)c(C)c1 | 4.3 |
| Cc1ccc(NC(=O)C[C@H](CC(=O)O)c2noc([C@H]3C[C@@H](C(C)(C)C(C)C)C3)c2C2CC2)c(C)c1 | 4.7 |
| Cc1ccc(NC(=O)C[C@H](CC(=O)O)c2noc([C@H]3C[C@@H](CC(C)C)C3)c2C2CC2)c(F)c1 | 4.2 |
| Cc1cccc(NC(=O)C[C@H](CC(=O)O)c2noc([C@H]3C[C@@H](CC(C)C)C3)c2C2CC2)c1C | 4.3 |
| Cc1ccc(NC(=O)C[C@H](Cc2nccs2)c2nnc([C@H]3C[C@@H](CC(C)C)C3)n2C2CC2)c(C)c1 | 4.6 |
| Cc1ccc(NC(=O)C[C@H](Cc2ccc(C(=O)O)cc2)c2noc([C@H]3C[C@@H](CC(C)C)C3)c2C2CC2)c(C)c1 (mixture of isomers) | 4.7 |
| Cc1ccc(NC(=O)C[C@H](CCC(=O)O)n2ncc([C@H]3C[C@@H](CC(C)(C)C)C3)c2C2CC2)c(Cl)c1 | 5 |
| Cc1cccc(C)c1NC(=O)C[C@H](CC(=O)O)c1noc([C@H]2C[C@@H](CC(C)C)C2)c1C1CC1 | 4.2 |
| Cc1ccc(NC(=O)C[C@H](CC(=O)O)c2noc([C@H]3C[C@@H](CCC(C)(C)C)C3)c2C2CC2)c(C)c1 | 5 |
| Cc1ccc(NC(=O)CC(c2nnc([C@H]3C[C@@H](CC(C)C)C3)n2C2CC2)C2CN(C)C2)c(C)c1 (mixture of isomers) | 3.8 |
| Cc1ccc(NC(=O)CC(CC(=O)N(C)C)c2nnc([C@H]3C[C@@H](CC(C)C)C3)n2C2CC2)c(C)c1 (mixture of isomers) | 4.3 |
